Species: Danio rerio
Method Summary: Antiangiogenic activity in wild type zebrafish 24 hrs post fertilization embryos assessed as reduction in blood vessel growth at 2 uM treated for 48 hrs by alkaline phosphatase assay relative to control
Type: functional
Parameters: scale not given: the % may be the effect or the level left
The source made the active and inactive calls. The rule behind the calls is not given here.
Measure: Activity

- Compound: "C/C(=C\\CO)CC/C=C(\\C)C(=O)O[C@@H]1O[C@H](CO)[C@@H](O)[C@H](O)[C@H]1O"
  Observed Result: "79.82%"
- Compound: "C[C@]1(O)CC[C@@H]2C(C(=O)O[C@@H]3CO[C@](O)(CO)[C@@H](O)[C@@H]3O)=CO[C@@H](O[C@@H]3O[C@H](COC(=O)C=Cc4ccc(O)cc4)[C@@H](O)[C@H](O)[C@H]3O)[C@@H]21 (mixture of isomers)"
  Observed Result: "inactive"
- Compound: "C/C(=C/CO)CC/C=C(\\C)C(=O)OC[C@H]1O[C@@H](O[C@@H]2OC=C(C(=O)O[C@@H]3CO[C@](O)(CO)[C@@H](O)[C@@H]3O)[C@H]3CC[C@](C)(O)[C@@H]23)[C@H](O)[C@@H](O)[C@@H]1O"
  Observed Result: "inactive"
- Compound: "C[C@]12O[C@H]1[C@@H](OC(=O)/C=C/c1ccccc1)[C@]1(O)C=CO[C@@H](O[C@@H]3O[C@H](CO)[C@@H](O)[C@H](O)[C@H]3O)[C@@H]12"
  Observed Result: "inactive"
- Compound: "C/C(=C\\CO[C@@H]1O[C@H](CO)[C@@H](O)[C@H](O)[C@H]1O)CC/C=C(\\C)C(=O)O[C@@H]1O[C@H](CO)[C@@H](O)[C@H](O)[C@H]1O"
  Observed Result: "inactive"
- Compound: "C/C(=C\\CO)CC/C=C(\\C)C(=O)O[C@@H]1[C@@H]2O[C@]2(CO)[C@H]2[C@H](O[C@@H]3O[C@H](CO)[C@@H](O)[C@H](O)[C@H]3O)OC=C[C@@]12OC(=O)/C(C)=C/CC/C(C)=C/CO"
  Observed Result: "inactive"
- Compound: "COc1cc2c(cc1O)CC[C@@H]1[C@@H]2CC[C@]2(C)[C@@H](O)CC[C@@H]12"
  Observed Result: "52%"
- Compound: "C[C@]12O[C@H]1[C@@H](O)[C@]1(O)C=CO[C@@H](O[C@@H]3O[C@H](CO)[C@@H](O)[C@H](O)[C@H]3O)[C@@H]12 [ANTIRRHINOSIDE]"
  Observed Result: "81%"

----------
Species: Danio rerio
Method Summary: Antiangiogenic activity in wild type zebrafish 24 hrs post fertilization embryos assessed as reduction in blood vessel growth at 2 uM treated for 48 hrs by alkaline phosphatase assay relative to control
Format: functional
Design: scale not given: the % may be the effect or the level left
Active and inactive are the calls of the source. The calls are words filed in the database; no cut-off is given here.
Measure: Activity

- Molecule: "C/C(=C\\CO)CC/C=C(\\C)C(=O)O[C@@H]1[C@@H]2O[C@]2(C)[C@H]2[C@H](O[C@@H]3O[C@H](CO)[C@@H](O)[C@H](O)[C@H]3O)OC=C[C@@]12O"
  Observed Result: "48.33%"
- Molecule: "C[C@]12O[C@H]1[C@@H](OC(=O)C=Cc1ccc(O)cc1)[C@]1(O)C=CO[C@@H](O[C@@H]3O[C@H](CO)[C@@H](O)[C@H](O)[C@H]3O)[C@@H]12 (mixture of isomers)"
  Observed Result: "77.38%"
- Molecule: "C=C[C@@](C)(O)CC/C=C(\\C)C(=O)OC[C@H]1O[C@@H](O[C@@H]2OC=C(C(=O)O[C@@H]3CO[C@](O)(CO)[C@@H](O)[C@@H]3O)[C@H]3CC[C@](C)(O)[C@@H]23)[C@H](O)[C@@H](O)[C@@H]1O"
  Observed Result: "72.72%"
- Molecule: "C/C(=C\\CO)CC/C=C(\\C)C(=O)OC[C@H]1OC(O)[C@H](O)[C@@H](O)[C@@H]1O (stereo not given in full)"
  Observed Result: "inactive"
- Molecule: "C=C[C@@](C)(O)CC/C=C(\\C)C(=O)O[C@@]12C=CO[C@@H](O[C@@H]3O[C@H](CO)[C@@H](O)[C@H](O)[C@H]3O)[C@@H]1[C@@]1(CO)O[C@H]1[C@H]2OC(=O)/C(C)=C/CC/C(C)=C/CO"
  Observed Result: "inactive"
